- Tested on: 407 cancer cell lines
- Method description: Cell viability of cancer cell lines (IC50), CellTiter-Glo Viability Assay, 96 h
- Assay type: cell-based
- Condition description: Homo sapiens, NCI-H1792, 96 h, NCI-H1792 cells, 96 h; read-out: Absolute IC50
Parameter: pIC50
Worth noting: pIC50 values are minus log10 of concentrations stated in mol/L.

Per the records, this compound ( Cc1nn(-c2nc(-c3ccc(C(F)(F)F)cc3)c(SC(C)C)s2)c(C(=O)O)c1-c1cccc(F)c1 ) has pIC50 equal to 5.90

----------
- Tested on: 407 cancer cell lines
- Method description: Cell viability of cancer cell lines (IC50), CellTiter-Glo Viability Assay, 96 h
- Assay type: cell-based
- Condition description: ZR-75-30, 96 h; read-out: Absolute IC50
Parameter: IC50 (nM)
Supply the numeric figure in nM, leaving out any unit text.

Briefly, IC50 measured for N.N.[Cl][Pt][Cl] [Cisplatin, reference compound] : 2990
